# target_entity: Aβ42 (Homo sapiens)
# Sequence (P05067 672-713): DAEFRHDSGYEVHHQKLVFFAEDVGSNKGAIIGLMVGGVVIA
# assay_details: Th-T (thioflavin-T) assay of Aβ42 aggregation
# Assay type: biochemical
# condition: concentration 50, unit not given; time-course reading M140
Simple rule here: Th-T fluorescence of Aβ42 with compound, mean of three wells (Fig. 7a source data) less than 0.8 is Met, otherwise Not met.

A record lists C=C1CCC2C(C)(CCC=C(C)C)C(O)CCC2(C)C1Cc1c(OC)oc(CO)c(C(=O)OC)c1=O (centres unmarked) . Is its Th-T fluorescence of Aβ42 with compound, mean of three wells (Fig. 7a source data) below 0.8?
Met

Also check C=C1CCC2C(C)(CCC=C(C)C)C(O)CCC2(C)C1Cc1c(OC)oc(CO)c(C)c1=O (centres unmarked)
Not met

Also check `C=C1CC[C@@H]2[C@](C)(CC[C@H]3O[C@H](C=C(C)C)C[C@@]23C)[C@@H]1Cc1c(OC)oc(CO)c(C)c1=O`
Not met

Also check C=C1CCC2C(C)(CCC=C(C)C)C(O)CCC2(C)C1Cc1c(OC)oc(C)c(C(=O)OC)c1=O (centres unmarked)
Met

Also check `C=C1CC[C@@H]2[C@](C)(CC[C@H]3O[C@H](C=C(C)C)C[C@@]23C)[C@@H]1Cc1c(OC)oc(CO)c(C(=O)OC)c1=O`
Met

---

So I've got a bunch of compounds here, and I need their Th-T assay signal, mean of three wells (Fig. 7a) values.
# target_entity: Aβ42 (Homo sapiens)
# assay_details: Th-T (thioflavin-T) assay of Aβ42 aggregation
# Type: biochemical
# condition: column suffix _10; reading M6

Can you share its Th-T assay signal, mean of three wells (Fig. 7a)? I mean this compound: C=C1CCC2C(C)(CCC=C(C)C)C(O)CCC2(C)C1Cc1c(OC)oc(CO)c(C)c1=O (centres unmarked) [Compound 12]
0.3621

Also check C=C1CCC2C(C)(CCC=C(C)C)C(O)CCC2(C)C1Cc1c(OC)oc(C)c(C(=O)OC)c1=O (centres unmarked) [Compound 14]
0.3168

Also check C=C1CCC2C(C)(CCC=C(C)C)C(O)CCC2(C)C1Cc1c(OC)oc(CO)c(C(=O)OC)c1=O (centres unmarked) [Compound 13]
0.2438

Also check C=C1CC[C@@H]2[C@](C)(CC[C@H]3O[C@H](C=C(C)C)C[C@@]23C)[C@@H]1Cc1c(OC)oc(CO)c(C(=O)OC)c1=O [Compound 21]
0.2279

Also check C=C1CC[C@@H]2[C@](C)(CC[C@H]3O[C@H](C=C(C)C)C[C@@]23C)[C@@H]1Cc1c(OC)oc(CO)c(C)c1=O [Compound 20]
0.4731

---

# target_entity: UniProt P05067
# assay_details: Th-T (thioflavin-T) assay of Aβ42 aggregation
# Assay type: biochemical
# condition: time-course reading M111; Supplementary Fig. 47 source data
Simple rule here: Th-T fluorescence, mean of three wells less than 3 is MET, otherwise NOT MET.

A record lists C=C1CC[C@H]2[C@]3(C)C[C@@H](C=C(C)C)O[C@H]3CC[C@]2(C)[C@@H]1Cc1c(OC)oc(CO)c(C)c1=O [Compound 17] . Is its Th-T fluorescence, mean of three wells below 3?
NOT MET

Also check C=C1CCC2C(C)(CC(=O)C=C(C)C)C(O)CCC2(C)C1Cc1c(OC)oc(C)c(C)c1=O (centres unmarked) [Compound 25]
NOT MET

Also check C=C1CCC2C(C)(CCC=C(C)C)C(O)CCC2(C)C1Cc1c(OC)oc(C)c(C)c1=O (centres unmarked) [Compound 15, viridoxin A hydrolysate]
NOT MET

Also check C=C1CCC2C3(C)CC(C=C(C)C)OC3CCC2(C)C1Cc1c(OC)oc(C)c(C)c1=O (centres unmarked) [Compound 23]
NOT MET

Also check C=C1CC[C@H]2[C@]3(C)C[C@H](C=C(C)C)O[C@H]3CC[C@]2(C)[C@@H]1Cc1c(O)c(C)c(C)oc1=O [Compound 6, subglutinol B]
NOT MET

Also check C=C1CCC2C(C)(CC(=O)C=C(C)C)C(O)CCC2(C)C1Cc1c(OC)oc(CO)c(C)c1=O (centres unmarked) [Compound 19]
NOT MET

Also check C=C1CC[C@H]2[C@]3(C)C[C@@H](C=C(C)C)O[C@H]3CC[C@]2(C)[C@@H]1Cc1c(O)c(C)c(C)oc1=O [Compound 5, subglutinol A]
MET

Also check C=C1CCC2C(C)(CCC=C(C)C)C(O)CCC2(C)C1Cc1c(O)c(C)c(C)oc1=O (centres unmarked) [Compound 9, higginsianin B]
MET

Also check C=C1CC[C@@H]2[C@](C)(CC[C@H]3O[C@H](C=C(C)C)C[C@@]23C)[C@@H]1Cc1c(OC)oc(CO)c(C(=O)OC)c1=O [Compound 21]
MET

Also check C=C1CC[C@H]2[C@]3(C)C[C@H](C=C(C)C)O[C@H]3CC[C@]2(C)[C@@H]1Cc1c(OC)oc(CO)c(C)c1=O [Compound 18]
NOT MET

Also check C=C1CC[C@H]2[C@]3(C)C[C@H](C=C(C)C)O[C@H]3CC[C@]2(C)[C@@H]1Cc1c(OC)oc(C)c(C)c1=O [Compound 24]
NOT MET

Also check C=C1CCC2C(C)(CCC=C(C)C)C(O)CCC2(C)C1Cc1c(OC)oc(CO)c(C(=O)OC)c1=O (centres unmarked) [Compound 13]
MET

Value source: paper PMC7156458
